- Test system: Escherichia coli TOP10;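 also: peptides expressed intracellularly from a pBAD plasmid library in pooled LB shake-flask culture, induced with 0.3% L-arabinose, DNA abundance read by NGS, three biological replicates, DESeq2 with apeglm shrinkage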
- PROTOCOL_DETAILS: shrunken log2 fold change of peptide-encoding DNA abundance (4.5 h post-induction vs induction); higher = less antimicrobial activity (less host growth inhibition)
- CONDITION_DETAILS: time post-induction: 4.5 h; library: site-saturation at positions 5, 18, 19, 20
EXPERIMENTAL_READOUT: shrunken log2 fold change
Please state the value as a number alone, without comment.

RRIRYRPPRLPRPRPRPHVSPRP
0.0324

Measured shrunken log2 fold change of RRIRQRPPRLPRPRPRPESQPRP : -0.0174

Measured shrunken log2 fold change of RRIRDRPPRLPRPRPRPMHHPRP : -0.146

Measured shrunken log2 fold change of RRIRHRPPRLPRPRPRPPMVPRP : 0.0642

Measured shrunken log2 fold change of RRIRVRPPRLPRPRPRPLLAPRP : 0.343

Measured shrunken log2 fold change of RRIRPRPPRLPRPRPRPSTAPRP : -0.105

Measured shrunken log2 fold change of RRIRCRPPRLPRPRPRPLPWPRP : 0.195

Measured shrunken log2 fold change of RRIRERPPRLPRPRPRPNVAPRP : -0.186
